testProtocol: Pharmacokinetic study in rats, IV and oral gavage, with brain penetration
Format: in vivo, rat
conditionSet: male, Sprague Dawley, brain, intravenous, 1 mg/kg; rat, 1 h; read-out: Brain/Plasma ratio (1 h)
testReadout: Kp at 1 h

{"smilesInput": "COc1ccc(OC(=O)NC2CCCCCC2)cc1-c1cncc(-c2nnco2)c1", "testReadout": "Kp at 1 h", "reported": 0.19}

----------
testProtocol: Pharmacokinetic study in rats, IV and oral gavage, with brain penetration
Format: in vivo, rat
conditionSet: male, Sprague Dawley, plasma; rat, PO 10.0 mg/kg; read-out: t1/2 (h), PO (converted)
testReadout: half-life (h)

{"smilesInput": "COc1ccc(OC(=O)NC2CCCCCC2)cc1-c1cncc(-c2nnco2)c1", "quantityUnit": "h", "reported": 1.25}
{"smilesInput": "O=C(NC1CCCCC1)Oc1ccc(O)c(-c2cncc(-c3nnco3)c2)c1", "quantityUnit": "h", "reported": 2.85}
